system: HCT-15 colon; experiment: NCI tumour cell line growth inhibition, 48 h
property.label: TGI

Below: 2 molecules and their reported TGI.
> print(dat)
                                cpd.smiles  study.target  property.label  measurement
1           O=c1[nH]nc(-c2cccc(Br)c2)[nH]1  HCT-15 colon             TGI     > 100 µM
2  Cc1[nH]c(=O)[nH]c(=S)c1C(=O)NC(C)(CO)CO  HCT-15 colon             TGI     > 100 µM

## Input I would be grateful if you could share the reported TGI for "O=C(O)C(Sc1ccc(Cl)cc1)Sc1ccc(Cl)cc1" .
## Output > 100 µM

====

Here, each record is paired with measured TGI data.
system: U251 CNS; assay: NCI tumour cell line growth inhibition, 48 h

Below: 5 compounds and their reported TGI.
> print(dat)
                                   compound  measurement
1                Cc1oc2nc(N(C)C)nc(Cl)c2c1C     > 100 µM
2  Cc1nnc([C@@]2(C)CC[C@H]3[C@@H](CC=C4C[C@@H](O)CC[C@@]43C)[C@@H]2CC#N)o1     > 100 µM
3  Cc1cc(C)cc(Nc2nnc3n2S(=O)(=O)c2cc(C#N)c(Cl)cc2S3)c1      4.29 µM
4  Cn1cc(C2=C(c3cn(C)c4c(N)cccc34)C(=O)NC2=O)c2ccccc21    > 19.2 µM
5                      CCc1cccc(C)c1NC(C)=O     > 100 µM

## Input I would be grateful if you could share the reported TGI for "CN(C)C(=S)/N=c1\ss/c(=N\C(=S)N(C)C)n1-c1ccc2c(c1)OCO2" .
## Output > 100 µM

## Input I would be grateful if you could share the reported TGI for "CCCN=C(NC(=O)c1ccc(Cl)cc1)SC" .
## Output > 100 µM

## Input I would be grateful if you could share the reported TGI for "O=C(c1ccccc1)c1c2ccccn2c2cccc[n+]12" .
## Output > 100 µM

====

Here, each record is paired with measured TGI data.
test system: OVCAR-4 ovarian; assay: NCI tumour cell line growth inhibition, 48 h

Below: 3 compounds and their reported TGI.
> print(dat)
                                   compound  property.label  measurement
1  CN(C)C(=S)/N=c1\ss/c(=N\C(=S)N(C)C)n1-c1ccc2c(c1)OCO2             TGI     > 100 µM
2  CCCN(CCCCC(NC(C)=O)C(=O)NCc1ccccc1)C(=O)N(CCCl)N=O (configuration not stated)             TGI     > 100 µM
3  CC(C(=O)N1c2ccccc2Sc2ccccc21)N1c2ccccc2Sc2ccccc21 (configuration not stated)             TGI     > 100 µM

Now consider a different compound.
## Input I would be grateful if you could share the reported TGI for "Nc1nccc(-c2c(-c3ccc(F)cc3)ncn2CCCN2CCOCC2)n1" .
## Output > 25 µM

====

tested on: OVCAR-4 ovarian; experiment: NCI tumour cell line growth inhibition, 48 h; in the data active = GI50 below about 0.43 µM; inactive = the rest
Hello, when you answer, please use one of the following outcomes: active, inactive

Please review the entries below; each comes with its answer.
> print(dat)
                                   compound     study.target  class.assignment
1  COc1cccc(N=Cc2c3ccccc3c(=O)n3c2oc2ccccc23)c1  OVCAR-4 ovarian          inactive
2  CCCCC/C=C/C/C=C/CCCCCCCC1=NC(C)(C)CN1C(C)C  OVCAR-4 ovarian          inactive
3  C[C@]12CC[C@@H]3c4ccc(Oc5nc(N6CC6)nc(N6CC6)n5)cc4CC[C@H]3[C@@H]1CCC2=O  OVCAR-4 ovarian          inactive
4                CCCNC(=S)N/N=C(\C)c1ccccn1  OVCAR-4 ovarian            active
5  CCCCNC(=O)NS(=O)(=O)c1ccc(N2N=C(c3ccc(C)cc3C)CC2c2ccc(N(C)C)cc2)cc1 (stereo not drawn)  OVCAR-4 ovarian          inactive

## Input Please state the recorded outcome for this compound: "COc1ccc(-c2cc3c(nn2)-c2ccccc2C3=O)cc1"
## Output inactive

## Input Please state the recorded outcome for this compound: "Cc1c2c(nn1-c1ccc(S(=O)(=O)/N=C3\SCC(=O)N3C(=O)c3ccccc3)cc1)-c1ccccc1CC2"
## Output inactive

## Input Please state the recorded outcome for this compound: CC12CCCC(CC(=O)c3[nH]c4ccccc4c31)C2 (stereo not drawn)
## Output inactive
